# Procedure Summary: Caco-2 permeability, Method B7
# Type: in vitro ADME, human
# Test Settings: human; Caco-2, 10 μM, without P-gp inhibitor
# Experimental: B7. Determination of Caco-2 Permeability The Caco-2 cell line, derived from a human colorectal carcinoma, has become an established in vitro model for the prediction of drug absorption across the human intestine. […] Permeability across the Caco-2 cell layer was determined by growing the cells on a membrane placed between two (donor and acceptor) chambers. […] Permeability may also be determined from the basolateral to the apical side of the Caco-2 cell. […]
Property Label: Papp A→B at 60 min, 10 μM (×10⁻⁶ cm/s)

INSERT INTO assay_data (molecule, measured_result) VALUES
  ('CC[C@@H]1NCC2CCc3cccc(c3O2)CCCNC(=O)[C@@H](Cc2ccccc2)NC(=O)[C@H](C(C)O)N(C)C1=O (stereo partly drawn)', 0.099),
  ('CC(C)[C@@H]1NCCOc2ccccc2C#C[C@@H](C)NC(=O)[C@@H](Cc2ccccc2)NC(=O)[C@H](C(C)O)N(C)C1=O (stereo partly drawn)', 0.131),
  ('CC(O)[C@H]1C(=O)N[C@H](Cc2ccccc2)C(=O)NCC#Cc2ccccc2OCCN[C@@H](C2(C)CC2)C(=O)N1C (stereo partly drawn)', 0.144);
